molecular target: Phosphodiesterase 4 (Homo sapiens, UniProt P27815+Q08499+Q07343+Q08493); test: Inhibition of phosphodiesterase 4 (PDE4) in human neutrophils; format: protein assay
measuredProperty: pIC50
Write the value as a bare number.

The compound listed as COc1ccc(C2=NN(C3CCCCCC3)C(=O)C3CC=CCC23)cc1OCCCCC(=O)O (stereo not given) has a reported pIC50 of 7.8

The compound listed as COc1ccc(C2=NN(C3CCCCCC3)C(=O)C3CC=CCC23)cc1OCCCCOc1ccc(C(=O)O)cc1 (stereo not given) has a reported pIC50 of 9.5

The compound listed as COc1ccc(C2=NN(C3CCCCCC3)C(=O)C3CC=CCC23)cc1OCCCCCCOc1ccc(C(N)=O)cc1 (stereo not given) has a reported pIC50 of 9.5

The compound listed as COc1cccc(C2=NN(Cc3ccccc3)C(=O)C3CCCCC23)c1 (stereo not given) has a reported pIC50 of 5.6
